Assay: Pharmacokinetic pilot study, YM155 in blood/plasma after single i.v. administration
Type: in vivo, mice
Details: female, NMRI nu/nu, mouse, plasma, iv, 1 mg/kg, single i.v. 1 mg/kg, compartmental analysis, 1-compartment model; read-out: CA t1/2 (converted)
Endpoint Name: half-life (min)
Write down the numeric answer in min and omit the unit.

half-life measured on COCCn1c2c([n+](Cc3cnccn3)c1C)C(=O)c1ccccc1C2=O [YM155, Sepantronium bromide] = 12

====

Assay: Pharmacokinetic pilot study, YM155 in blood/plasma after single i.v. administration
Type: in vivo, mice
Conditions: female, NMRI nu/nu, mouse, plasma, iv, 1 mg/kg, single i.v. 1 mg/kg, NCA; read-out: Vz
Endpoint Name: Vd (L/kg)
Write down the numeric answer in L/kg and omit the unit.

Vd measured on COCCn1c2c([n+](Cc3cnccn3)c1C)C(=O)c1ccccc1C2=O [YM155, Sepantronium bromide] = 4.65
